Hey, just so you know, these numbers are from patent US20230157952A1.

assay_procedure: Effect of concentration on the stability of the solution (purity over time)
conditions: 3 wt %; in water at 25° C.
parameter: Purity at Day 21 (%)
Kindly answer with a numeric value in %, unit omitted.

Below are worked cases with known answers.
compound=CCN(CC)CCOC(=O)Cc1c(C)n(C(=O)c2ccc(Cl)cc2)c2ccc(OC)cc12.Cl measured_value=95.0
compound=CCN(CC)CCOC(=O)CCc1ccc2cc(OC)ccc2c1.Cl measured_value=94.8
compound="CCN(CC)CCOC(=O)CC1=C(C)C(=Cc2ccc([S+](C)[O-])cc2)c2ccc(F)cc21.Cl (centres unmarked)" measured_value=94.1
compound=CCN(CC)CCOC(=O)Cc1ccc(C(=O)c2ccc(C)cc2)n1C.Cl measured_value=94.0
compound="CCN(CC)CCOC(=O)[C@H](C)c1ccc2cc(OC)ccc2c1.Cl (racemic)" measured_value=97.6

query: Reported Purity at Day 21, compound CCN(CC)CCOC(=O)CCc1nc(-c2ccccc2)c(-c2ccccc2)o1.Cl : ____
result: 89.0

query: Look up Purity at Day 21 for this compound: CCN(CC)CCOC(=O)Cc1sc(-c2ccccc2)nc1-c1ccc(Cl)cc1.Cl
result: 94.0

query: Item under review: CCN(CC)CCOC(=O)C(C)c1ccc2oc(-c3ccc(Cl)cc3)nc2c1.Cl (centres unmarked) . Reported Purity at Day 21?
result: 94.3

###

Listed below: Purity(%) at Day 14 values for each entry.
assay_procedure: Effect of concentration on the stability of the solution (purity over time)
conditions: 0.1 wt % in 50% ethanol, 25° C.
Please reply with the bare figure in % and do not write the unit itself.

Guide cases for Purity(%) at Day 14, answers given:
compound="CC(C)(C)OC(=O)c1ccccc1 [t-Butyl benzoate, reference compound]" parameter="Purity(%) at Day 14" measured_value=0.0
compound="CC(C)(C)OC(=O)C(N)Cc1ccccc1 (centres unmarked) [t-Butyl 2-amino-3-phenylpropanoate, reference compound]" parameter="Purity(%) at Day 14" measured_value=86.1
compound="CC(C)OC(=O)c1ccccc1 [Isopropyl benzoate, reference compound]" parameter="Purity(%) at Day 14" measured_value=98.3
compound="CCOC(=O)c1ccccc1 [Ethyl benzoate, reference compound]" parameter="Purity(%) at Day 14" measured_value=97.2

Please find the next compound below.
query: Can you share its Purity(%) at Day 14? I mean this compound: CC(C)OC(=O)C(N)Cc1ccccc1 (centres unmarked) [Isopropyl 2-amino-3-phenylpropanoate, reference compound]
result: 96.8

###

assay_procedure: Effect of pH value on the stability of the solution (purity)
Type: physicochemical
conditions: day 14, pH 6.0, 7% in water, 25° C.
parameter: Purity(%) from day 0-14
Value and unit, in that order.

Please review the entries below; each comes with its answer.
molecule="CCCCC(=O)O.CCN(CC)CCOC(=O)c1ccccc1OC(C)=O [A-4]" parameter="Purity(%) from day 0-14" measured_value="77.3 ± 0.3%"
molecule="CC(O)C(=O)O.CCN(CC)CCOC(=O)c1ccccc1OC(C)=O [A-3]" parameter="Purity(%) from day 0-14" measured_value="78.3 ± 0.3%"
molecule="CCN(CC)CCOC(=O)c1ccccc1OC(C)=O.O=C(O)c1ccccc1 [A-2]" parameter="Purity(%) from day 0-14" measured_value="78.3 ± 0.3%"

Next item in the queue.
query: Entry CCN(CC)CCOC(=O)c1ccccc1OC(C)=O.O=C(O)/C=C\C(=O)O [A-1] : reported Purity(%) from day 0-14 = ?
result: 78.9 ± 0.3%

###

assay_procedure: Effect of temperature (and pH) on the stability of the solution (purity)
Type: physicochemical
conditions: 7% solution in water, pH 4.6, day 21, 40° C.
The entries below are paired with their reported Purity(%) at day 21 (40° C.).
API: value field is a number in %; no unit string.

Sample records with Purity(%) at day 21 (40° C.):
compound=CCN(CC)CCOC(=O)COc1nn(Cc2ccccc2)c2ccccc12.Cl readout_unit=% measured_value=54.7
compound="CCN(CC)CCOC(=O)C(C)c1ccc(-c2ccccc2)c(F)c1.Cl (racemic)" readout_unit=% measured_value=58.1
compound=CCN(CC)CCOC(=O)Cc1ccc(C(=O)c2ccc(C)cc2)n1C.Cl readout_unit=% measured_value=55.3

query: Item CCN(CC)CCOC(=O)COC(=O)Cc1c(C)n(C(=O)c2ccc(Cl)cc2)c2ccc(OC)cc12.Cl has what recorded Purity(%) at day 21 (40° C.)?
result: 53.7

query: Need Purity(%) at day 21 (40° C.) of CCN(CC)CCOC(=O)C(C)c1ccc2oc(-c3ccc(Cl)cc3)nc2c1.Cl (stereo not drawn) , thanks.
result: 50.3

query: // returns reported Purity(%) at day 21 (40° C.) for input CCN(CC)CCOC(=O)CCc1ccc2cc(OC)ccc2c1.Cl
result: 59.3

query: What value of measured Purity(%) at day 21 (40° C.) is listed for CCN(CC)CCOC(=O)CC1=C(C)C(=Cc2ccc([S+](C)[O-])cc2)c2ccc(F)cc21.Cl (stereo not drawn) ?
result: 57.3

query: What value of Purity(%) at day 21 (40° C.) has been reported for the following compound? CCN(CC)CCOC(=O)CCc1nc(-c2ccccc2)c(-c2ccccc2)o1.Cl
result: 54.7

query: Tell me the measured Purity(%) at day 21 (40° C.) of CCN(CC)CCOC(=O)Cc1c(C)n(C(=O)c2ccc(Cl)cc2)c2ccc(OC)cc12.Cl , please.
result: 56.3

###

Collected Purity (%) at Day 3 values appear next to each entry.
assay_procedure: Effect of concentration on the stability of the solution (purity over time)
conditions: 0.1 wt % in 50% ethanol, 25° C.
The reply should be a number in %, with the unit left off.

Recorded results for 4 molecules are shown here.
molecule="CC(C)(C)OC(=O)c1ccccc1 [t-Butyl benzoate, reference compound]" measured_value=0.0
molecule="CC(C)OC(=O)c1ccccc1 [Isopropyl benzoate, reference compound]" measured_value=98.4
molecule="CC(C)OC(=O)C(N)Cc1ccccc1 (centres unmarked) [Isopropyl 2-amino-3-phenylpropanoate, reference compound]" measured_value=97.6
molecule="CCOC(=O)c1ccccc1 [Ethyl benzoate, reference compound]" measured_value=97.6

Field: next molecule
query: // query Purity (%) at Day 3 value for entry CC(C)(C)OC(=O)C(N)Cc1ccccc1 (centres unmarked) [t-Butyl 2-amino-3-phenylpropanoate, reference compound]
result: 93.1

###

assay_procedure: Effect of pH value on the stability of the solution (purity)
Assay type: physicochemical
conditions: day 14, pH 3.7, 7% in water, 25° C.
parameter: Purity(%) from day 0-14
Lab note: write values as number then unit, every time.

Study these solved cases before continuing.
molecule="CCN(CC)CCOC(=O)c1ccccc1OC(C)=O.O=C(O)c1ccccc1 [A-2]" measured_value="94.1 ± 0.2%"
molecule="CCN(CC)CCOC(=O)c1ccccc1OC(C)=O.O=C(O)/C=C\\C(=O)O [A-1]" measured_value="94.0 ± 0.3%"
molecule="CC(O)C(=O)O.CCN(CC)CCOC(=O)c1ccccc1OC(C)=O [A-3]" measured_value="93.1 ± 0.3%"

--- query ---
query: Name the recorded Purity(%) from day 0-14 for CCCCC(=O)O.CCN(CC)CCOC(=O)c1ccccc1OC(C)=O [A-4] .
result: 93.2 ± 0.3%

###

assay_procedure: Effect of pH value on the stability of the solution (purity)
Type: physicochemical
conditions: day 14, pH 5.0, 7% in water, 25° C.
parameter: Purity(%) from day 0-14
// note: answer is a bare numeric in %

Consider the reported Purity(%) from day 0-14 for these compounds:
compound="CCN(CC)CCOC(=O)c1ccccc1OC(C)=O.O=C(O)/C=C\\C(=O)O [A-1]" measured_value=86.9
compound="CCCCC(=O)O.CCN(CC)CCOC(=O)c1ccccc1OC(C)=O [A-4]" measured_value=85.5
compound="CC(O)C(=O)O.CCN(CC)CCOC(=O)c1ccccc1OC(C)=O [A-3]" measured_value=85.6

// below: Purity(%) from day 0-14 requested for another compound
query: Would you mind telling me what Purity(%) from day 0-14 value was observed for CCN(CC)CCOC(=O)c1ccccc1OC(C)=O.O=C(O)c1ccccc1 [A-2] ?
result: 87.3

###

The following compounds are shown together with reported Purity(%) from day 0-14 values.
assay_procedure: Effect of pH value on the stability of the solution (purity)
Format: physicochemical
conditions: day 14, pH 4.3, 7% in water, 25° C.
Give your result in % as a bare value.

Field: example entries. Status: answers known.
compound="CCCCC(=O)O.CCN(CC)CCOC(=O)c1ccccc1OC(C)=O [A-4]" measured_value=94.7
compound="CC(O)C(=O)O.CCN(CC)CCOC(=O)c1ccccc1OC(C)=O [A-3]" measured_value=94.4
compound="CCN(CC)CCOC(=O)c1ccccc1OC(C)=O.O=C(O)c1ccccc1 [A-2]" measured_value=95.0

Consider the record given below.
query: Quick one: Purity(%) from day 0-14 of CCN(CC)CCOC(=O)c1ccccc1OC(C)=O.O=C(O)/C=C\C(=O)O [A-1] ?
result: 94.6
